System: OVCAR-5 ovarian
protocol-description: NCI tumour cell line growth inhibition, 48 h
recorded-metric: TGI

Take a look at these entries with their results.
In [3]: df
Out[3]:
                                   compound  recorded_metric     result
0   CCOC(=O)/C(=C/c1ccc(C(=O)OC)cc1)N(CC)CC              TGI   > 100 µM
1  COc1ccc(/C(COc2ccc3oc(-c4ccccc4)cc(=O)c3c2)=N\O)cc1              TGI  > 25.5 µM
2               O=S(=O)(NNc1ccccc1)c1ccccc1              TGI   > 100 µM

For every item below, please supply its TGI.
1. C[CH2][Ge]([CH2]C)([CH2]C)[O]C(=O)C(OC(C)=O)c1ccccc1 (centres undefined)
2. Clc1ccc(-c2cn3c(nc4ccccc43)c(/C=C/c3ccco3)n2)cc1
3. O=C1/C=C(/c2ccc(O)cc2)[C@@H](O)Cc2ccc(O)cc2O1
4. N#C/C(=C/c1ccc2c(c1)OCO2)C(=O)c1ccccc1
5. COc1ccc(N=NC(=O)NC(CC(C)C)C(N)=O)cc1 (centres undefined)
6. Cc1ccc(/C=N/Nc2nc(Nc3ccccc3)nc(-n3nc(C)cc3C)n2)cc1
7. CCOC(=O)Oc1cc2c(c(OC)c1OC)-c1ccc(OC)c(=O)cc1C(NC(C)=O)CC2 (centres undefined)

A:
1: > 100 µM; 2: > 100 µM; 3: > 100 µM; 4: > 100 µM; 5: > 100 µM; 6: > 100 µM; 7: > 100 µM

Provide the reported TGI of each entry below, same order.
1. Cc1sc2c(c1C)/C(=N\O)c1cccn1-2
2. CC1CC/C(=C\c2ccc(F)cc2)C(=O)/C1=C/c1ccc(F)cc1 (centres undefined)
3. CCN(CC)CCCNc1cc(OC)cc2nc3cc(Cl)ccc3nc12
4. Nc1nc(Cl)cc(NC2(CO)CCC2)n1
5. CN(C)c1ccc(/C=C(\NC(=O)c2ccccc2)C2=NC(CCC(=O)O)C(=O)O2)cc1 (centres undefined)
6. CC(=O)Nc1c(S(=O)(=O)c2ccccc2)c(C)c(C)n1Cc1ccccc1

A:
1: > 100 µM; 2: 25.4 µM; 3: 16.3 µM; 4: > 100 µM; 5: > 50 µM; 6: > 100 µM

Give one value of TGI per listed compound.
1. CC(C)=CCc1[nH]c2ccccc2c1C1=C(O)C(=O)C(c2c(CC=C(C)C)[nH]c3ccccc23)=C(O)C1=O
2. COc1ccc(C/C(=C(\C)c2ccc(OCCN3CCCC3)cc2)c2ccc(OCCN3CCCC3)cc2)cc1
3. NC1=Nc2cc(Cl)ccc2Sc2nc3ccccc3n21
4. Cn1cc(-c2ccc3cc(-c4ccc(CC(=O)Nc5cc(C(C)(C)C)on5)cc4)cnc3c2)cn1
5. C/C=C1\CN(C(=O)OC(C)(C)C)C1C(=O)OC(C)(C)C (centres undefined)
6. CCOC(=O)c1cc2c(cc1Cl)SC(=Nc1ccccc1)N(S(=O)(=O)c1ccc(Cl)cc1)S2(=O)=O
7. COc1cccc(CC(C)=C(c2ccc(OCCN3CCCCC3)cc2)c2ccc(OCCN3CCCCC3)cc2)c1
8. Cc1c(N=Nc2ccccc2)c(C)n(C2OC(CO)C(O)C(O)C2O)c(=S)c1C#N (centres undefined)

A:
8.44 µM
3.72 µM
> 100 µM
18.9 µM
> 100 µM
36.8 µM
3.99 µM
81.5 µM

Hi, could you look up TGI for each item in my list?
1. O=C(O)[C@H](NS(=O)(=O)c1ccc(F)cc1)c1ccccc1
2. Nc1ccc(C(=O)N/C(=C\c2cccc([N+](=O)[O-])c2)c2nc3[nH]c(=S)[nH]c(=O)c3[nH]2)cc1

A:
1: > 100 µM; 2: > 100 µM
